test.system: hNTS2R (Homo sapiens, UniProt O95665)
Sequence (O95665 whole entry): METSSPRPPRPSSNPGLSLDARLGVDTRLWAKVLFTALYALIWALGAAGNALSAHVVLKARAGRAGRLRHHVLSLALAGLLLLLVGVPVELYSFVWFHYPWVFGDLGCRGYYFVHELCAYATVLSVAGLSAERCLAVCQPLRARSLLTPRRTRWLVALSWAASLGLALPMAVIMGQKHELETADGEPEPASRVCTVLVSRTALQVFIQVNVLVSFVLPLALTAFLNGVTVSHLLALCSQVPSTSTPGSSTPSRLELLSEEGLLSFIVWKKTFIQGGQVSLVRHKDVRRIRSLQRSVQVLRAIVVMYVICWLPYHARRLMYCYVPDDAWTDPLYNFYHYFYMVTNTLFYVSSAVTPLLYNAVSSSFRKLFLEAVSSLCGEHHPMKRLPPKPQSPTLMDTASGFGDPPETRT
method: radioligand competition binding with [3H]UR-MK300 at intact HEK293T-hNTS2R cells
experimental.context: [3H]UR-MK300 c = 10 nM, read-out: Ki [nM] NTS2R (converted)
Exercise: for every item that follows, state its recorded Ki.
// note: answer is a bare numeric in nM

Record CN[C@@H](CCCNC(N)=NC(=O)NCCCCNC(=O)CN1CCN(CC(=O)O)CCN(CC(=O)O)CCN(CC(=O)O)CC1)C(=O)N[C@@H](CCCNC(=N)N)C(=O)N1CCC[C@H]1C(=O)N[C@@H](Cc1ccc(O)cc1)C(=O)N[C@H](C(=O)N[C@@H](CC(C)C)C(=O)O)C(C)(C)C [Compound 16] : what is its Ki with hNTS2R (Homo sapiens, UniProt O95665)?
150

Subsequent entry: `CN[C@@H](CCCNC(N)=NC(=O)NCCCCN)C(=O)N[C@@H](CCCNC(=N)N)C(=O)N1CCC[C@H]1C(=O)N[C@H](C(=O)N[C@H](C(=O)N[C@@H](CC(C)C)C(=O)O)C(C)(C)C)C(C)(C)c1ccc(O)cc1`
6.5

# repeat for CN[C@@H](CCCNC(N)=NC(=O)NCCCCNC(=O)CN1CCN(CC(=O)O)CCN(CC(=O)O)CCN(CC(=O)O)CC1)C(=O)N[C@@H](CCCNC(=N)N)C(=O)N1CCC[C@H]1C(=O)N[C@@H](Cc1ccc(O)cc1)C(=O)N[C@H](C(=O)N[C@@H](CC(C)C)C(=O)O)C(C)(C)C [Compound 21]
59

Try `CN[C@@H](CCCNC(=N)N)C(=O)N[C@@H](CCCNC(=N)NC(=O)NCCCCNC(=O)CN1CCN(CC(=O)O)CCN(CC(=O)O)CCN(CC(=O)O)CC1)C(=O)N1CCC[C@H]1C(=O)N[C@@H](Cc1ccc(O)cc1)C(=O)N[C@H](C(=O)N[C@@H](CC(C)C)C(=O)O)C(C)(C)C` next.
79
